system: T47D cells; assay: Cell-based assay: anti-proliferative activity, Cell Counting Kit-8, 72 hours (T47D); conditions: Homo sapiens, T47D, 72 h
Structures can show the parent of a compound that is named as a salt.
Criterion: IC50 strictly less than 0.5 µM. Met: rule met. Not met: rule not met.

Q: Given the entry CN(C)C1CCN(Cc2ccc(Nc3c(C(=O)C4CC4)cnc4ccc(-c5cc(F)c(O)c(Cl)c5)cc34)cc2)C1 (centres unmarked) [Example 696] , would its reported IC50 be below 0.5 µM?
Ans: rule met

Q: Given the entry CN(C)CCN1CCC(Nc2c(C(=O)C3CC3)cnc3ccc(-c4cc(Cl)c(O)c(Cl)c4)cc23)CC1 [Example 819] , would its reported IC50 be below 0.5 µM?
Ans: rule met

Q: Given the entry COc1cc(-c2ccc3ncc(C(=O)C4CC4)c(Nc4ccc(NCCN(C)C)nc4)c3c2)cc(Cl)c1O [Example 746] , would its reported IC50 be below 0.5 µM?
Ans: rule met

Q: Given the entry N#Cc1cnc2ccc(-c3ccc(O)c(Cl)c3)cc2c1N1CCC(CN2CCCC2)CC1 [Example 433] , would its reported IC50 be below 0.5 µM?
Ans: rule not met

Q: Given the entry CN(C)C[C@]1(O)CC[C@@H](Nc2c(C(=O)C3CC3)cnc3ccc(-c4cc(Cl)c(O)c(Cl)c4)cc23)CC1 [Example 652] , would its reported IC50 be below 0.5 µM?
Ans: rule met

Q: Given the entry COc1cc(-c2ccc3ncc(C(=O)C4CC4)c(Nc4cnc(N5CCC(N)CC5)nc4)c3c2)cc(Cl)c1O [Example 553] , would its reported IC50 be below 0.5 µM?
Ans: rule met

Q: Given the entry CN(C)C[C@H]1CC[C@H](Nc2c(C(=O)C3CC3)cnc3ccc(-c4cnc(C#N)nc4)cc23)CC1 [Example 426] , would its reported IC50 be below 0.5 µM?
Ans: rule met

Q: Given the entry CS(=O)(=O)c1cnc2ccc(-c3cc(F)c(O)c(Cl)c3)cc2c1N[C@H]1CC[C@H](CN2CCCC2)CC1 [Example 891, hydrochloride] , would its reported IC50 be below 0.5 µM?
Ans: rule not met

Q: Given the entry CC(=O)c1cnc2ccc(-c3cc(Cl)c(O)c(Cl)c3)cc2c1NC1CCN(CCN(C)C)CC1 [Example 823] , would its reported IC50 be below 0.5 µM?
Ans: rule met

Q: Given the entry C[S+]([O-])c1cnc2ccc(-c3cc(F)c(O)c(Cl)c3)cc2c1N[C@H]1CC[C@H](N)CC1 (some centres unmarked) [Example 498] , would its reported IC50 be below 0.5 µM?
Ans: rule not met

Q: Given the entry CC(=O)c1cnc2cc(C)c(-c3cc(Cl)c(O)c(Cl)c3)cc2c1N[C@H]1CC[C@H](CN2CCC(N)C2)CC1 (some centres unmarked) [Example 872, hydrochloride] , would its reported IC50 be below 0.5 µM?
Ans: rule not met

Q: Given the entry COC1CCN(C2CCC(Nc3c(C(=O)C4CC4)cnc4ccc(-c5cc(Cl)c(O)c(Cl)c5)cc34)CC2)C1 (centres unmarked) [Example 661] , would its reported IC50 be below 0.5 µM?
Ans: rule met

Q: Given the entry CN1CCN(c2ccc(-c3c(C(=O)C4CC4)cnc4ccc(-c5cc(Cl)c(O)c(Cl)c5)cc34)cc2)CC1 [Example 430] , would its reported IC50 be below 0.5 µM?
Ans: rule not met
